system: LOX IMVI melanoma; assay: NCI-60 one-dose screen, 48 h; settings: 10 µM unless noted
This is part of a sample that, as a whole, favours compounds with a hit. Of some 83,000 tested, about 20% had one in any assay. Activity calls are given as the source filed them. How the source made its calls: active means growth percent below 10; inactive means the rest.
Possible outcomes: active, inactive

MOLECULE: Cc1ccc(Nc2oc(-c3ccccc3)nc2[P+](c2ccccc2)(c2ccccc2)c2ccccc2)cc1
CLASS_ASSIGNMENT: active
//
MOLECULE: O=C(OCc1ccc2c(Br)cc(Br)c(O)c2n1)N1CCN(C(=O)c2cc3ccccc3[nH]2)CC1
CLASS_ASSIGNMENT: inactive
//
MOLECULE: CN(C)C(=O)OCc1ccc2c(Cl)cc(Cl)c(O)c2n1
CLASS_ASSIGNMENT: inactive
//
MOLECULE: Cc1cc2nc(C(Cl)Cl)nc(-c3ccccc3)n2n1
CLASS_ASSIGNMENT: inactive
//
MOLECULE: c1ccc2[nH]c(-c3ccc(-c4nccc5c4[nH]c4ccccc45)cc3)nc2c1
CLASS_ASSIGNMENT: inactive
//
MOLECULE: CCN1C(=O)N(CC)C2C1NC(=S)N2/N=C/C=C/c1ccccc1 (stereo not drawn)
CLASS_ASSIGNMENT: inactive
//
MOLECULE: Cc1nc2sc(C(=O)Nc3ccccc3)c(N)c2cc1C(O)c1ccccc1 (stereo not drawn)
CLASS_ASSIGNMENT: inactive
//
MOLECULE: Cc1cc(C(=O)Nc2cc(Nc3ncccc3-c3ncnc4nc[nH]c34)ccc2F)cc(C(C)(C)C#N)c1
CLASS_ASSIGNMENT: active
//
MOLECULE: CCN(CC)CCCNc1cc(OC)cc2cccnc12
CLASS_ASSIGNMENT: inactive
//
MOLECULE: CCN1CCN(C(=O)[C@]23CC[C@@H](C)[C@H](C)[C@@H]2C2=CC[C@@H]4[C@@]5(C)C/C(=C/c6ccncc6)C(=O)C(C)(C)[C@@H]5CC[C@@]4(C)[C@]2(C)CC3)CC1
CLASS_ASSIGNMENT: active
//
MOLECULE: CC(C)(C)[C@H](OCc1cn([C@H]2C[C@@H](O)[C@@H](CO)O2)c(=O)[nH]c1=O)c1ccc(C#Cc2ccccc2)cc1[N+](=O)[O-]
CLASS_ASSIGNMENT: inactive
//
MOLECULE: CN1CCN(Cc2ccc(NC(=O)c3cncc(C#Cc4c(N)ncc5cc(F)ccc45)c3)cc2C(F)(F)F)CC1
CLASS_ASSIGNMENT: active
//
MOLECULE: CC(=O)Oc1ccccc1C(=O)N(Cc1ccc2c(Cl)cc(Cl)c(O)c2n1)c1ccccc1
CLASS_ASSIGNMENT: inactive
//
MOLECULE: CC1=C(C(=O)c2ccccc2)C(c2ccc3c(c2)OCO3)NC(=S)N1 (stereo not drawn)
CLASS_ASSIGNMENT: inactive
//
MOLECULE: COc1cc2nc3cc([N+](=O)[O-])ccc3c(NCCCNCCO)c2cc1OC
CLASS_ASSIGNMENT: active
//
MOLECULE: C=C1CC[C@@H]2[C@](C)(COC(C)=O)[C@H](OC(C)=O)CC[C@@]2(C)[C@@H]1CC(Nc1ccc(S(=O)(=O)Nc2nccc(C)n2)cc1)C1=CCOC1=O (stereo partly drawn)
CLASS_ASSIGNMENT: active
//
MOLECULE: Cc1ccc2nc(/C=C/c3ccc(N(C)C)cc3)cc(C)c2c1
CLASS_ASSIGNMENT: inactive
//
MOLECULE: C/C(=N\NC(=O)c1ccc(C(C)(C)C)cc1)c1ccc(O)cc1O
CLASS_ASSIGNMENT: active
//
MOLECULE: Cc1cccc(C)c1NC(=O)Nc1ccccc1
CLASS_ASSIGNMENT: inactive
//
MOLECULE: C#CCOc1cccc(Nc2c(Cl)c(CCl)nc3ccc(Oc4ccccc4)cc23)c1
CLASS_ASSIGNMENT: active
//
MOLECULE: CCCc1cc(CCC)n2nc(N)nc2n1
CLASS_ASSIGNMENT: inactive
//
MOLECULE: O=C(/C=C/c1ccco1)c1ccc(Nc2ccnc3cc(Cl)ccc23)cc1
CLASS_ASSIGNMENT: inactive
//
MOLECULE: O=C1C=CC2(O)OC(c3ccccc3)CC(=O)C2=C1O (stereo not drawn)
CLASS_ASSIGNMENT: inactive
//
MOLECULE: CC(C)=CC(=O)C1C(=O)c2ccccc2C1=O
CLASS_ASSIGNMENT: inactive
//
MOLECULE: O=S(=O)(c1ccc(NCSc2nc3ccccc3s2)cc1)c1ccc(NCSc2nc3ccccc3s2)cc1
CLASS_ASSIGNMENT: inactive
//
MOLECULE: C#CC(F)(F)[C@]1(O)CCC2C3CCC4=CC(=O)CCC4=C3[C@@H](c3ccc(N(C)C)cc3)C[C@@]21C (stereo partly drawn)
CLASS_ASSIGNMENT: inactive
//
MOLECULE: CNC(=O)c1cc(Oc2ccc3nc(NC(=O)NC(C)C)sc3c2)ccn1
CLASS_ASSIGNMENT: inactive
//
MOLECULE: COc1ccc(-n2c(=O)n(-c3ccc(-c4nc5ccc(F)cc5s4)cc3)c(=O)c3cccnc32)cc1
CLASS_ASSIGNMENT: inactive
//
MOLECULE: CC(C)(C)n1cc(-c2ccnc(NCCNS(=O)(=O)c3cccc4ccccc34)c2)c(-c2cccc(O)c2)n1
CLASS_ASSIGNMENT: inactive
//
MOLECULE: COC(=O)c1c(C(=O)OC)c2ccc3c4ncccc4ccc3n2c1C(=O)c1ccc(C)cc1
CLASS_ASSIGNMENT: inactive
//
MOLECULE: O=c1ccc2c(ccc3ncccc32)o1
CLASS_ASSIGNMENT: inactive
//
MOLECULE: CCCCCCCCOC(=O)c1c(C)[nH]c(/C=C2\N=C(c3ccc[nH]3)C=C2OC)c1C
CLASS_ASSIGNMENT: active
//
MOLECULE: COc1ccc(Nc2nc(Nc3cc(C)[nH]n3)c3cc(OC)c(OC)cc3n2)cc1
CLASS_ASSIGNMENT: active
//
MOLECULE: COc1cc2cc(Oc3ccc(NC(=O)Nc4ccc(F)c(C(F)(F)F)c4)cc3)c(C)nc2cc1OCCN1CCCCC1
CLASS_ASSIGNMENT: active
//
MOLECULE: Cc1ccc(NC(=O)c2ccc(Nc3ncnc4c3cnn4-c3cccc(F)c3)cc2)cc1
CLASS_ASSIGNMENT: inactive
//
MOLECULE: O=c1n(C2OC(CO)C(O)C2O)ccc2nccn12 (stereo not drawn)
CLASS_ASSIGNMENT: inactive
//
MOLECULE: COc1ccc(NC(=O)CSc2oc(-c3ccccc3)nc2S(=O)(=O)c2ccc(Cl)cc2)c(OC)c1
CLASS_ASSIGNMENT: inactive
//
MOLECULE: [2H]C([2H])([2H])Oc1c(F)cccc1/C=C/C(=O)/C=C(O)/C=C/c1cccc(F)c1OC([2H])([2H])[2H]
CLASS_ASSIGNMENT: inactive
